Assay: NCI Yeast Anticancer Drug Screen. Data for the bub3 strain (AID 167)
Conditions: S. cerevisiae bub3 mutant strain, at 50.0 µM (retest, dose inferred, filed as 5.0), active compounds read high
The panel holds about 79,000 compounds, 15% with a hit somewhere; the sample as a whole holds those more often.
Reported growth inhibition is given for each of the following molecules.
Give the value in % but do not write % after it.

CC[n+]1cnc(N)c2c(-c3ccc(Cl)cc3)cn(-c3ccc(C)cc3)c21
98
O=[N+]([O-])c1ccc(NC(=S)N/N=C(\c2ccccc2)c2ccccn2)cc1
82
CC(O)c1c2ccccc2cc2ccccc12 (stereo unspecified)
81

Request: Quote growth inhibition reported for CC(C(O)Cc1ccccc1)N(C)N=Nc1ccc([N+](=O)[O-])cc1 (stereo unspecified) please.
Response: 92

Request: In one line, give reported growth inhibition of the entry COc1cccc(C2c3cc4c(cc3OC(N3CCCC3)C2C)OCO4)c1 (stereo unspecified) .
Response: 88

Request: Specify reported growth inhibition for the molecule shown: CC(CN(C)C)C(=O)/C=C/c1ccc(C(C)C)cc1 (stereo unspecified)
Response: 81

----------
Assay: NCI Yeast Anticancer Drug Screen. Data for the cln2 rad14 strain (AID 165);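 also: 0% = growth equal to vehicle treated cultures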
Conditions: S. cerevisiae cln2 rad14 strain, at 50.0 µM (retest, dose inferred, filed as 5.0)
Compounds without any hit were thinned out: in the full panel of roughly 79,000, 15% have a hit. The source made the active and inactive calls. Rule as the data show it: active = growth inhibition above about 70%; inactive = the rest.
Give your call using only these classes: TRUE (active), FALSE (inactive)

Recorded results for 3 compounds are shown here.
CCC1=C(c2ccc(OC(C)=O)cc2)Cc2cc(OC(C)=O)ccc21
TRUE
Cc1ccc(O)c(C(c2cc(C)ccc2O)c2cc([N+](=O)[O-])ccc2O)c1
TRUE
COC(=O)c1ccc(CCc2cc(O)ccc2O)cc1
TRUE

Request: What did this assay record as the result for Oc1ccc(-c2ccccc2)cc1Cl ?
Response: TRUE

Request: Hey, what did the test say about COC1CC(C)(NC(C)=O)C2OC(c3ccccc3)OCC2O1 (stereo not given) ?
Response: FALSE

Request: So what was the verdict on O=C1CNCCCN2CCN(CCCNCC(=O)Nc3ccc(cc3)S(=O)(=O)c3ccc(cc3)NC(=O)CNCCCN3CCN(CCCNCC(=O)Nc4ccc(cc4)S(=O)(=O)c4ccc(cc4)N1)CC3)CC2 in this test?
Response: TRUE

Request: I would be grateful if you could indicate the recorded call for Cc1ccc(OS(=O)(=O)c2ccc(Br)cc2)cc1 .
Response: FALSE

Request: Given CCOC(=O)c1c(Cl)nc2ccccc2c1N=[N+]=[N-] , state the outcome it received in this test.
Response: TRUE

Request: Which outcome was assigned to COc1ccccc1/C=C(\NC(=O)c1ccccc1)c1nc2ccccc2[nH]1 in this test?
Response: TRUE

Request: Kindly provide the recorded test outcome for the following compound: Cn1cccc1C(/C=C/c1ccccc1[N+](=O)[O-])c1cccn1C
Response: FALSE

----------
Assay: NCI Yeast Anticancer Drug Screen. Data for the mec2-1 strain (AID 157)
Conditions: S. cerevisiae mec2-1 strain, at 5.0 µM (retest, dose inferred, filed as 0.5), active compounds read high
Compounds without any hit were thinned out: in the full panel of roughly 79,000, 15% have a hit.
// values below are reported growth inhibition
The answer is to be given in %; state only the numeric part.

Below: 3 molecules and their reported growth inhibition.
COc1ccc(CSC(=S)Nc2ccc(Cl)cc2Cl)cc1
5
CN(C)CC/C(=N\Nc1ccc(Cl)c(Cl)c1)c1ccccc1
69
O=C(Nc1ccc(C2=NCCN2)cc1)c1ccc(C(=O)Nc2ccc(C3=NCCN3)cc2)c(Cl)c1
25

Request: Entry CCC1CCCN1CCOC(=O)C(c1ccccc1)C1C=CCC1 (stereo not drawn) needs its growth inhibition filled in; supply it.
Response: 23

Request: Give me measured growth inhibition, please, for this molecule: Clc1ccc(C2=CCCc3ccccc32)cc1
Response: 6

Request: Return the recorded growth inhibition value; entry: C/C=C1\CC(C)(CC)C(C#N)(C#N)C(N)=C1C#N (stereo not drawn)
Response: -3
